# target-of-assay: T1, MDMX (In-house, 40 kD) (UniProt O15151 1-120, limits assumed)
# T1 construct: also called MDM4
# T1 sequence (looked up): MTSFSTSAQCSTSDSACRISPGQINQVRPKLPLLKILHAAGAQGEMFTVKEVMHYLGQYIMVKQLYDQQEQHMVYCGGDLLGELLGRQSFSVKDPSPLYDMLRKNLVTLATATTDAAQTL
# protocol-description: competitive fluorescence polarization vs FAM-labeled linear peptide; column IC50 (MDMX); grade means >1000 nM
pIC50: −log10 of the molar value.
Answer each item with its documented pIC50.

INSERT INTO assay_data (binder, result) VALUES
  ('ETFAEYWAQAASAA (not fully specified; N-terminal Pam cap (abbreviation not explained in the filing); $r8 = alpha-Me R8-octenyl-alanine and $ = alpha-Me S5-pentenyl-alanine joined by an all-carbon crosslinker; Cba = cyclobutyl alanine; C-terminal amide (NH2), also called Pam-ETF$r8EYWAQCba$SAA-NH2) [SP250]', '< 6.00');

Attention now shifts to the item below.
Data point: LTAAEYWAQAASAA (not fully specified; N-terminal acetyl (Ac); $r8 = alpha-Me R8-octenyl-alanine and $ = alpha-Me S5-pentenyl-alanine joined by an all-carbon crosslinker; Cba = cyclobutyl alanine; C-terminal amide (NH2), also called Ac-LTA$r8EYWAQCba$SAA-NH2) [SP252] ; pIC50 = < 6.00

Sourced from patent US20200369728A1
